Overview of recorded relative viability for various compounds
# System: NCI-H1355
# Method Description: relative viability (nuclei count vs DMSO), 5 days (fraction); higher = more cells survive
# Condition Description: first compound 0.4 µM
Number only, no unit.

**Query** Provide measured relative viability value, entry: Clc1ccc(Nc2nnc(Cc3ccncc3)c3ccccc23)cc1 [Vatalanib] + CC(=O)Nc1cccc(-n2c(=O)n(C3CC3)c(=O)c3c(Nc4ccc(I)cc4F)n(C)c(=O)c(C)c32)c1 [Trametinib] (partner 0.02 µM)
**Result** 0.461

**Query** Provide measured relative viability value, entry: Clc1ccc(Nc2nnc(Cc3ccncc3)c3ccccc23)cc1 [Vatalanib] + COc1cccc2cc(-c3nc([C@H]4CC[C@H](C(=O)O)CC4)n4ncnc(N)c34)[nH]c12 [OSI-027] (partner 0.5 µM)
**Result** 0.435

**Query** Provide measured relative viability value, entry: COc1cc(N2CCC(C(N)=O)CC2)ccc1Nc1nc(N)c(Cl)c(Nc2ccccc2S(=O)(=O)C(C)C)n1 [HG-5-88-01] + CCNC(=O)c1noc(-c2cc(C(C)C)c(O)cc2O)c1-c1ccc(CN2CCOCC2)cc1 [Luminespib] (partner 0.01 µM)
**Result** 0.703

**Query** Provide measured relative viability value, entry: Clc1ccc(Nc2nnc(Cc3ccncc3)c3ccccc23)cc1 [Vatalanib] + C[C@]1(O)C[C@@H](c2nc(-c3ccc4ccc(-c5ccccc5)nc4c3)c3c(N)nccn32)C1 [Linsitinib] (partner 1 µM)
**Result** 0.915

**Query** Provide measured relative viability value, entry: COc1cc(N2CCC(C(N)=O)CC2)ccc1Nc1nc(N)c(Cl)c(Nc2ccccc2S(=O)(=O)C(C)C)n1 [HG-5-88-01] + NC(=O)Nc1cc(-c2cccc(F)c2)sc1C(=O)N[C@H]1CCCNC1 [AZD7762] (partner 0.2 µM)
**Result** 0.762

----------
# Test system: NCI-H1755
# Method Description: relative viability (nuclei count vs DMSO), 5 days (fraction); higher = more cells survive
# Condition Description: first compound 1.265 µM
Test Readout: relative viability
Number only, no unit.

**Query** Provide measured relative viability value, entry: COc1cc(N2CCC(C(N)=O)CC2)ccc1Nc1nc(N)c(Cl)c(Nc2ccccc2S(=O)(=O)C(C)C)n1 [HG-5-88-01] + CC(C)C[C@H](NC(=O)[C@H](Cc1ccccc1)NC(=O)c1cnccn1)B(O)O [Bortezomib] (partner 0.002 µM)
**Result** 0.92

**Query** Provide measured relative viability value, entry: COc1cc(N2CCC(C(N)=O)CC2)ccc1Nc1nc(N)c(Cl)c(Nc2ccccc2S(=O)(=O)C(C)C)n1 [HG-5-88-01] + O=C(CCCCCCC(=O)Nc1ccccc1)NO [Vorinostat] (partner 1 µM)
**Result** 0.748

**Query** Provide measured relative viability value, entry: COc1cc(N2CCC(C(N)=O)CC2)ccc1Nc1nc(N)c(Cl)c(Nc2ccccc2S(=O)(=O)C(C)C)n1 [HG-5-88-01] + CCNC(=O)c1noc(-c2cc(C(C)C)c(O)cc2O)c1-c1ccc(CN2CCOCC2)cc1 [Luminespib] (partner 0.01 µM)
**Result** 0.385

**Query** Provide measured relative viability value, entry: Clc1ccc(Nc2nnc(Cc3ccncc3)c3ccccc23)cc1 [Vatalanib] + Cc1cc(Nc2cc(N3CCN(C)CC3)nc(Sc3ccc(NC(=O)C4CC4)cc3)n2)n[nH]1 [Tozasertib] (partner 0.1 µM)
**Result** 0.58
